So I've got a bunch of compounds here, and I need their IC50 at 48 h values.
Assay: Cell viability assay (MTT)
Type: cell-based, rat
Conditions: rat, H9c2 cardiomyocytes; H9c2, 48 h; read-out: Cytotoxicity IC50
Give bare numbers, in µM.

Here's what some known entries look like.
{"COMPOUND": "COC1=C(c2c[nH]c3ccccc23)C(=O)C(CC=C(C)C)=C(c2c[nH]c3ccccc23)C1=O [Compound 6, kumbicin D]", "UOM": "µM", "IC50 at 48 h": 65.4}
{"COMPOUND": "Cc1c(C)c(O)c2c(c1C)C(C)C(=O)OC2=O (centres unmarked) [Compound 4, sclerin]", "UOM": "µM", "IC50 at 48 h": 57.2}
{"COMPOUND": "COc1c(OC)c(-c2c[nH]c3ccccc23)c(OC)c(OC)c1-c1c[nH]c2ccccc12 [Compound 7, asterriquinol D dimethyl ether]", "UOM": "µM", "IC50 at 48 h": 69.9}

Attention now shifts to the item below.
query: What value of IC50 at 48 h has been recorded for this entry: C=C(C)C1CCC23C(O)CCC(C)C2(C)CCC(C)C3C1c1c[nH]c2ccccc12 (centres unmarked) [Compound 5, 10,23-dihydro-24,25-dehydroaflavinine]
result: 57.2

----------
So I've got a bunch of molecules here, and I need their cell viability values.
Test system: MDA-MB-231 breast cancer cells
Assay: Cell viability assay (MTT)
Assay type: cell-based, human
Conditions: MDA-MB-231, 48 h, 1.0 µM

Here's what some known entries look like.
{"MOLECULE": "COc1c(OC)c(-c2c[nH]c3ccccc23)c(OC)c(OC)c1-c1c[nH]c2ccccc12", "cell viability": "99.8 ± 3.7 % of control"}
{"MOLECULE": "COc1c(OC)c(-c2c[nH]c3ccc(O)cc23)c(OC)c(OC)c1-c1c[nH]c2ccccc12", "cell viability": "102.9 ± 0.5 % of control"}
{"MOLECULE": "Cc1c(C)c(O)c2c(c1C)C(C)(O)OC2=O (stereo not drawn) [Compound 3, sclerolide]", "cell viability": "107.6 ± 2.8 % of control"}
{"MOLECULE": "Cc1c(C)c(O)c2c(c1C)C(C)C(=O)OC2=O (stereo not drawn)", "cell viability": "94.3 ± 3.9 % of control"}
{"MOLECULE": "C=C(C)C1CCC23C(O)CCC(C)C2(C)CCC(C)C3C1c1c[nH]c2ccccc12 (stereo not drawn) [Compound 5, 10,23-dihydro-24,25-dehydroaflavinine]", "cell viability": "103.2 ± 2.4 % of control"}

Attention now shifts to the item below.
query: What value of cell viability has been recorded for this entry: COC1=C(c2c[nH]c3ccccc23)C(=O)C(CC=C(C)C)=C(c2c[nH]c3ccccc23)C1=O
result: 100.6 ± 2.2 % of control

----------
So I've got a bunch of molecules here, and I need their cell viability values.
System: MCF-7 breast cancer cells
Experiment: Cell viability assay (MTT)
Type: cell-based, human
Conditions: MCF-7, 24 h, 1.0 µM

Here's what some known entries look like.
{"MOLECULE": "COC1=C(c2c[nH]c3ccccc23)C(=O)C(CC=C(C)C)=C(c2c[nH]c3ccccc23)C1=O [Compound 6, kumbicin D]", "TARGET": "MCF-7 breast cancer cells", "cell viability": "107.6 ± 6.5 % of control"}
{"MOLECULE": "COc1c(OC)c(-c2c[nH]c3ccc(O)cc23)c(OC)c(OC)c1-c1c[nH]c2ccccc12 [Compound 8, petromurin C]", "TARGET": "MCF-7 breast cancer cells", "cell viability": "105.4 ± 5.9 % of control"}
{"MOLECULE": "C=C(C)C1CCC23C(O)CCC(C)C2(C)CCC(C)C3C1c1c[nH]c2ccccc12 (stereo not drawn) [Compound 5, 10,23-dihydro-24,25-dehydroaflavinine]", "TARGET": "MCF-7 breast cancer cells", "cell viability": "100.5 ± 0.9 % of control"}
{"MOLECULE": "COc1c(OC)c(-c2c[nH]c3ccccc23)c(OC)c(OC)c1-c1c[nH]c2ccccc12 [Compound 7, asterriquinol D dimethyl ether]", "TARGET": "MCF-7 breast cancer cells", "cell viability": "99.4 ± 4.4 % of control"}
{"MOLECULE": "Cc1c(C)c(O)c2c(c1C)C(C)(O)OC2=O (stereo not drawn) [Compound 3, sclerolide]", "TARGET": "MCF-7 breast cancer cells", "cell viability": "107.2 ± 8.9 % of control"}

query: What value of cell viability has been recorded for this entry: Cc1c(C)c(O)c2c(c1C)C(C)C(=O)OC2=O (stereo not drawn) [Compound 4, sclerin]
result: 104.3 ± 4.6 % of control

----------
Assay: Cell viability assay (MTT)
Format: cell-based, human
Conditions: human, MDA-MB-231 breast cancer cells; MDA-MB-231, 24 h; read-out: Cytotoxicity IC50
READOUT TYPE: IC50 at 24 h (µM)
Numbers only, in µM.

{"COMPOUND": "COC1=C(c2c[nH]c3ccccc23)C(=O)C(CC=C(C)C)=C(c2c[nH]c3ccccc23)C1=O", "UOM": "µM", "IC50 at 24 h": 74.4}

Attention now shifts to the item below.
query: What value of IC50 at 24 h has been recorded for this entry: C=C(C)C1CCC23C(O)CCC(C)C2(C)CCC(C)C3C1c1c[nH]c2ccccc12 (centres unmarked) [Compound 5, 10,23-dihydro-24,25-dehydroaflavinine]
result: 62.9

----------
Test system: MCF-10A breast epithelial cells
Assay: Cell viability assay (MTT)
Format: cell-based, human
Conditions: MCF10A, 24 h, 100.0 µM
So I've got a bunch of molecules here, and I need their cell viability values.

Here's what some known entries look like.
{"MOLECULE": "Cc1c(C)c(O)c2c(c1C)C(C)C(=O)OC2=O (stereo not drawn)", "TARGET": "MCF-10A breast epithelial cells", "cell viability": "47.0 ± 3.2 % of control"}
{"MOLECULE": "Cc1c(C)c(O)c2c(c1C)C(C)(O)OC2=O (stereo not drawn) [Compound 3, sclerolide]", "TARGET": "MCF-10A breast epithelial cells", "cell viability": "62.5 ± 2.2 % of control"}
{"MOLECULE": "COc1c(OC)c(-c2c[nH]c3ccccc23)c(OC)c(OC)c1-c1c[nH]c2ccccc12", "TARGET": "MCF-10A breast epithelial cells", "cell viability": "59.6 ±2.1 % of control"}
{"MOLECULE": "C=C(C)C1CCC23C(O)CCC(C)C2(C)CCC(C)C3C1c1c[nH]c2ccccc12 (stereo not drawn) [Compound 5, 10,23-dihydro-24,25-dehydroaflavinine]", "TARGET": "MCF-10A breast epithelial cells", "cell viability": "16.1 ± 8.6 % of control"}
{"MOLECULE": "COC1=C(c2c[nH]c3ccccc23)C(=O)C(CC=C(C)C)=C(c2c[nH]c3ccccc23)C1=O", "TARGET": "MCF-10A breast epithelial cells", "cell viability": "23.9 ± 6.2 % of control"}

Attention now shifts to the item below.
query: Form: Entry = COc1c(OC)c(-c2c[nH]c3ccc(O)cc23)c(OC)c(OC)c1-c1c[nH]c2ccccc12 | System = MCF-10A breast epithelial cells | cell viability = ____
result: 52.0 ± 4.0 % of control

----------
Test: Cell viability assay (MTT)
Type: cell-based, human
Settings: human, MCF-7 breast cancer cells; MCF-7, 48 h; read-out: Cytotoxicity IC50
So I've got a bunch of molecules here, and I need their IC50 at 48 h values.
Answers are plain numbers, in µM.

{"MOLECULE": "COc1c(OC)c(-c2c[nH]c3ccc(O)cc23)c(OC)c(OC)c1-c1c[nH]c2ccccc12 [Compound 8, petromurin C]", "IC50 at 48 h [µM]": 61.5}
{"MOLECULE": "C=C(C)C1CCC23C(O)CCC(C)C2(C)CCC(C)C3C1c1c[nH]c2ccccc12 (centres unmarked) [Compound 5, 10,23-dihydro-24,25-dehydroaflavinine]", "IC50 at 48 h [µM]": 53.5}

Required: IC50 at 48 h, one value per molecule below.
1. COc1c(OC)c(-c2c[nH]c3ccccc23)c(OC)c(OC)c1-c1c[nH]c2ccccc12 [Compound 7, asterriquinol D dimethyl ether]
2. COC1=C(c2c[nH]c3ccccc23)C(=O)C(CC=C(C)C)=C(c2c[nH]c3ccccc23)C1=O [Compound 6, kumbicin D]

result:
79.1
47.3

----------
Test system: MCF-7 breast cancer cells
Experiment: Cell viability assay (MTT)
Type: cell-based, human
Settings: MCF-7, 24 h, 100.0 µM
READOUT TYPE: cell viability

{"MOLECULE": "C=C(C)C1CCC23C(O)CCC(C)C2(C)CCC(C)C3C1c1c[nH]c2ccccc12 (stereo not drawn) [Compound 5, 10,23-dihydro-24,25-dehydroaflavinine]", "cell viability": "10.0 ± 1.0 % of control"}

Required: cell viability, one value per molecule below.
1. Cc1c(C)c(O)c2c(c1C)C(C)(O)OC2=O (stereo not drawn) [Compound 3, sclerolide]
2. COc1c(OC)c(-c2c[nH]c3ccccc23)c(OC)c(OC)c1-c1c[nH]c2ccccc12
3. COc1c(OC)c(-c2c[nH]c3ccc(O)cc23)c(OC)c(OC)c1-c1c[nH]c2ccccc12
4. Cc1c(C)c(O)c2c(c1C)C(C)C(=O)OC2=O (stereo not drawn)
5. COC1=C(c2c[nH]c3ccccc23)C(=O)C(CC=C(C)C)=C(c2c[nH]c3ccccc23)C1=O

result:
70.2 ±5.5 % of control
56.0 ± 4.5 % of control
53.7 ± 6.8 % of control
68.3 ± 4.5 % of control
29.9 ± 0.8 % of control
